Test system: MALME-3M melanoma
assay_name: NCI-60 one-dose screen, 48 h (100 = growth as untreated, 0 = no growth, -100 = all killed)
recorded_conditions: 10 µM unless noted
Compounds without any hit were thinned out: in the full panel of roughly 83,000, 20% have a hit.
Quick reference for growth among some compounds

compound	growth / %
O=C(c1ccccc1)C1(Br)CCCCC1	95.1
O=[N+]([O-])c1ccc(NC2CCCCC2)nc1	118
CCn1c2ccc(N(C)C)cc2c2cc(N(C)C)ccc21	111
c1ccc2c[n+](Cc3ccc4ccccc4n3)ccc2c1	75.7
O=C1C=CC(=O)N1Cc1ccco1	94.5
CCCC(=O)Oc1ccc(CC)cc1	104
COCCCNC1=C(C#N)C(=O)NC(c2cccs2)S1 (stereo not drawn)	104
Nc1ccc(Cl)c(S(=O)(=O)O)c1	112
N=c1sc2ccccc2n1CC(=O)O	110
COC(=O)c1nc(N)nc(C(=O)OC)c1C(=O)c1ccc(F)cc1	104
CC1(C)CC(=O)NC1=O	102
Cc1c(O)nc(N)[nH]c1=O	109
NC(=O)Cc1nc(O)cc(=O)[nH]1	103
CC(C)=NOC(C)C(=O)O (stereo not drawn)	112
COc1ccc2nccc(Cl)c2c1	103
OC1CCCN(Cc2ccccc2)C1 (stereo not drawn)	104
OCc1cccc(F)c1	106
CN(C)c1ccc(C(=N)c2ccc(N(C)C)cc2)cc1	61.6
Cc1cc(-c2ccc(N=Nc3c(C)nn(-c4ccc(S(=O)(=O)O)cc4)c3O)c(C)c2)ccc1N=Nc1ccc(O)c(C(=O)O)c1	111
S=c1nn[nH]n1C1CCCCC1	95.8
CS(=O)(=O)c1nsc(N)n1	101
Cc1cccc(Cl)c1N	111
CCOC(=O)c1ccncc1	113
COc1ccc2oc3c(ccc[n+]3C)c(=O)c2c1	102
COC(=O)c1cc(C(=O)OC)cc([N+](=O)[O-])c1	113
O=C(O)c1ccc2c3ccc(C(=O)O)c4c(C(=O)O)ccc(c5ccc(C(=O)O)c1c25)c43	86.7
O=C(O)C1CSCN1 (stereo not drawn)	94.1
O=[N+]([O-])c1ccc(NC(c2ccccc2)c2ccc3cccnc3c2O)cc1 (stereo not drawn)	17.2

---

Test system: RPMI-8226 leukemia
assay_name: NCI-60 one-dose screen, 48 h (100 = growth as untreated, 0 = no growth, -100 = all killed)
recorded_conditions: 10 µM unless noted
Protocol: Growth inhibition of the RPMI-8226 human tumor cell line is measured as a screen for anti-cancer activity. Cells are grown in 96 well plates and exposed to the test compound for 48 hours. Compounds are tested at a single concentration, which is 10^-5 M for most compounds. The reported endpoint is percent growth (GI% or GIPRCNT), where numbers from 0 - 100% represent growth inhibition, and numbers from -100% - 0 represent cell death. For example, a value of 40 represents 60% growth inhibition. […]
This is part of a sample that, as a whole, favours compounds with a hit. Of some 83,000 tested, about 20% had one in any assay. Calls of active or inactive are those of the source. Rule for the calls: active = growth percent below 10; inactive = the rest.
This section presents compounds with their documented growth values.
property: growth

compound	reported_measurement
Nc1ccc2ccc(NS(=O)(=O)N3CCCCC3)cc2c1	46% (inactive)
Cc1ccc(S(=O)(=O)n2ccnc2)cc1	100% (inactive)
CC1=CC(=O)c2cccc(NC3=NCCO3)c21	91.6% (inactive)
CCC(C)NC(=O)c1ccccc1C (stereo not drawn)	105% (inactive)
O=C(N=C1C(=O)C2(CCCCC2)C2(N=C(c3ccccc3)OC2=O)C12CCCCC2)c1ccccc1 (stereo not drawn)	53.2% (inactive)
Cc1cnc(N)s1	95.9% (inactive)
O=c1[nH]c(=O)n(C2OC(CO)C(O)C2O)cc1I (stereo not drawn)	107% (inactive)
CC(C)(C)OC(=O)CC1(O)CCCCC1	107% (inactive)
N#CC(=S)Nc1ccc(Cl)c(Cl)c1	19.7% (inactive)
CCOc1ccc(/C=C\C(=O)O)cc1	113% (inactive)
Cc1cc(-c2ccc(N=Nc3c(C)nn(-c4ccc(S(=O)(=O)O)cc4)c3O)c(C)c2)ccc1N=Nc1ccc(O)c(C(=O)O)c1	81.7% (inactive)
CCOC(=O)c1ccncc1	106% (inactive)
Cc1cc(O)c(C(C)C)cc1N=O	97.2% (inactive)
